assay: Cycloheximide Counterscreen for Small Molecule Inhibitors of Shiga Toxin; details: cell reporter, cycloheximide protein synthesis inhibition counterscreen; hits give high values; further: read at 38.3 µM for the half of the compounds with a filed dose; 0% is about no effect
Out of some 300,000 compounds screened, about 37,000 (12%) were called active. Many of the other results were omitted from the sample, so actives are more common in it than they were.
Please go through the items and note down their max response.
Numbers only, in %.

Some solved entries appear below for comparison.
# compound, max response (%)
measured = [
    ("COc1ccc(OC)c(NC(=O)Cc2cccs2)c1", 5.9),
    ("CCc1c(C)nc2cc(C)[nH]n2c1=O", -1.78),
    ("CCn1c(SCC(=O)Nc2ccc3c(c2)OCCO3)nnc1C(C)C", -1.89),
    ("N#CC(C#N)=CN=c1ccn(Cc2ccc(Cl)cc2Cl)cc1", -0.809),
]

// batch mode: one max response value per listed entry
1. Cc1nn(C)c(Cl)c1CN1CCC(n2nccc2NC(=O)C2CCCC2)CC1
2. COC(=O)c1cc(OCC(=O)NC2CCCc3ccccc32)cc(C(=O)OC)c1 (configuration not stated)
3. Cc1cc(F)ccc1NC(=O)C(C)n1c2ccccc2c2nc(=O)cc(C)n21 (configuration not stated)
4. Cc1nc2nc[nH]n2c(=O)c1C/C=C/c1ccccc1
5. Cn1cc[n+](C)c1COc1ccc(C=O)cc1
6. CCOC(=O)CN(C(=O)COc1nc(C)cc(C)c1C#N)c1ccc(Cl)cc1
7. Cc1ccc(NC(=S)NCCN2CCOCC2)cc1

-0.568
1.41
-0.783
10.1
1.36
1.33
-2.44

Noted for "COc1ccc(C(=O)NCc2cn3ccccc3n2)cc1" : its max response reads -1.44

Hello, the source for this data is PubChem BioAssay AID2314, in case you need it.
